Molecular target: T1, Fc-tagged human CD3E/D heterodimer (Homo sapiens, UniProt P07766;P04234)
T1 construct: CD3 epsilon, human; CD3 delta, human; also called hCD3E/D; source: Expi293, transiently co-expressed, purified (MabSelect Sure LX, Superdex 200)
T1 sequence (P07766 23-207, chain 1 of 2): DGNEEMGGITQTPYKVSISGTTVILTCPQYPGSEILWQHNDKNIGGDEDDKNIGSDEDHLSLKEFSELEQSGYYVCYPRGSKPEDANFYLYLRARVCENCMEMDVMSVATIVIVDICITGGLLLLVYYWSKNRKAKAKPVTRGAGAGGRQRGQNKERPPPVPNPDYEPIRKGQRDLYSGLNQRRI
T1 sequence (P04234 22-171, chain 2 of 2): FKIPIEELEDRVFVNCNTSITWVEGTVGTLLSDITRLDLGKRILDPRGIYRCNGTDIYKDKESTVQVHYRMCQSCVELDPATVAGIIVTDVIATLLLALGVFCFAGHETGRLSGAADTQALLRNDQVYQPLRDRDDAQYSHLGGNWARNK
Experiment: SPR; Fc-tagged CD3E/D variants captured on a C1 chip by amine-coupled anti-human Fc or anti-murine Fc pAb; concentration series of Fab; HBS pH 7.4, 0.05% Tween-20, 1 g/L BSA, 37 °C; 1:1 Langmuir model with mass transport
Details: both partners purified
METRIC: pKd
pKd is a log-scale quantity: -log10 of the concentration expressed in molar.

>>> obs_value("hCD3.2 Fab (Fab, V domains shown, VH of hCD3.2; CH1 of the Fab; VL of hCD3.2; CL of the Fab; Anti-human CD3 arm of a clinical T-cell engager; cloned in pTT5 with an N-terminal osteonectin signal peptide; source: Expi293, transient, purified (Ni Sepharose excel, Superdex 200)) VH: EVQLVESGGGLVQPGGSLRLSCAASGFTFNTYAMNWVRQAPGKGLEWVARIRSKYNNYATYYAASVKGRFTISRDDSKNSLYLQMNSLKTEDTAVYYCARHGNFGNSYVSWFAYWGQGTLVTVSS VL: QTVVTQEPSLTVSPGGTVTLTCRSSTGAVTTSNYANWVQQKPGQAPRGLIGGTNKRAPGTPARFSGSLLGGKAALTLSGVQPEDEAEYYCALWYSNLWVFGGGTKLTVL")
8.51

# input Tell us which pKd value is on record for SP34 Fab (Fab, V domains shown, VH of SP34; CH1 of the Fab; VL of SP34; CL of the Fab; Cyno cross-reactive anti-human CD3 clone; cloned in pTT5 with an N-terminal osteonectin signal peptide; source: Expi293, transient, purified (Ni Sepharose excel, Superdex 200)) VH: EVQLVESGGGLVQPKGSLKLSCAASGFTFNTYAMNWVRQAPGKGLEWVARIRSKYNNYATYYADSVKDRFTISRDDSQSILYLQMNNLKTEDTAMYYCVRHGNFGNSYVSWFAYWGQGTLVTVSA VL: QAVVTQESALTTSPGETVTLTCRSSTGAVTTSNYANWVQEKPDHLFTGLIGGTNKRAPGVPARFSGSLIGDKAALTITGAQTEDEAIYCALWYSNLWVFGGGTKLTVL
# output 8.18

# input Return value of pKd for input hCD3.1 Fab (Fab, V domains shown, VH of hCD3.1; CH1 of the Fab; VL of hCD3.1; CL of the Fab; Anti-human CD3 arm of a clinical T-cell engager; cloned in pTT5 with an N-terminal osteonectin signal peptide; source: Expi293, transient, purified (Ni Sepharose excel, Superdex 200)) VH: EVQLVESGGGLVQPGGSLRLSCAASGFTFSDYYMTWVRQAPGKGLEWVAFIRNRARGYTSDHNPSVKGRFTISRDNAKNSLYLQMNSLRAEDTAVYYCARDRPSYYVLDYWGQGTTVTVSS VL: DIVMTQSPDSLAVSLGERATINCKSSQSLFNVRSRKNYLAWYQQKPGQPPKLLISWASTRESGVPDRFSGSGSGTDFTLTISSLQAEDVAVYYCKQSYDLFTFGSGTKLEIK , no commentary.
# output 8.20

# input Identify the reported pKd for the following entry. hCD3.4 Fab (Fab, V domains shown, VH of hCD3.4; CH1 of the Fab; VL of hCD3.4; CL of the Fab; Anti-human CD3 arm of a clinical T-cell engager; cloned in pTT5 with an N-terminal osteonectin signal peptide; source: Expi293, transient, purified (Ni Sepharose excel, Superdex 200)) VH: QVQLVQSGAEVKKPGASVKVSCKASGFNIKDYYMHWVRQAPGQRLEWMGWIDLENGNTIYDPKFQGRVTITRDTSASTAYMELSSLRSEDTAVYYCARDGYGRYFYDVWGQGTLVTVSS VL: DIVMTQSPDSLAVSLGERATINCKSSQSLLNSRTGKNYLAWYQQKPGQPPKLLIYWASTRESGVPDRFSGSGSGTDFTLTISSLQAEDVAVYYCKQSYSRRTFGGGTKVEIK
# output 8.57

Where do these numbers come from? They come from paper PMC8894342.
